- TARGET_OR_SYSTEM: T1, human OT7T175 (metastin receptor) (human, UniProt Q969F8 1-398)
- T1 construct: expressed on CHO cells (hOT7T175-expressed CHO cells; hOT7T175/CHO); also called hOT7T175; h0T7T175
- T1 sequence (Q969F8 whole entry L364H): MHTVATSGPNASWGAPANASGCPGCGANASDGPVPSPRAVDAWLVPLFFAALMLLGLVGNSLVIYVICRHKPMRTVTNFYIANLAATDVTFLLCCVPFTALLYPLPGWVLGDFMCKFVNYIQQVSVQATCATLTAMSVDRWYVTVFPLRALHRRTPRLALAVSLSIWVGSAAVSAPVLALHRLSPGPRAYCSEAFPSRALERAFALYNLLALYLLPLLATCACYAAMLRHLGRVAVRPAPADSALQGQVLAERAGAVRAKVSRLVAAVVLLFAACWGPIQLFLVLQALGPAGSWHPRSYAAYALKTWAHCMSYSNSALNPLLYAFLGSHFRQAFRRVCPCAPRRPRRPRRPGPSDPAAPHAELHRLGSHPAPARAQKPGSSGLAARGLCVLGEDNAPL
- ASSAY_DETAILS: FMAT competition with Cy-5-labeled metastin (40-54), hOT7T175-expressed CHO cells
Numbered stars: 1 amine (or outer) side, 2 acyl side, 3 side chain; on linkers, the order of the positions; unused ones are H or OH. Square brackets hold non-standard residues; d marks the D form. Ends that are not written are not given here. Ala(2-Qui) = 2-quinolylalanine, O=C([C@H](Cc1ccc2ccccc2n1)N[*:1])[*:2]; Arg(Me) = CNC(=N)NCCC[C@H](N)C(=O)O; azaGly = NNC(=O)O
# key: entry, value: IC50
MEASUREMENT_NAME: IC50 (nM)

{"BINDER": "[dY]N[Ala(2-Qui)]NSF[azaGly]L[Arg(Me)]F-NH2 (N-terminus assumed; SMILES CNC(=N)NCCC[C@H](NC(=O)[C@H](CC(C)C)NC(=O)NNC(=O)[C@H](Cc1ccccc1)NC(=O)[C@H](CO)NC(=O)[C@H](CC(N)=O)NC(=O)[C@H](Cc1ccc2ccccc2n1)NC(=O)[C@H](CC(N)=O)NC(=O)[C@H](N)Cc1ccc(O)cc1)C(=O)N[C@@H](Cc1ccccc1)C(N)=O) [Compound No. 301: [D-Tyr1,Ala(2-Qui) 3,AzaGly7,Arg(Me)9]MS10]", "MEASUREMENT_NAME": "IC50", "MEASURE_UNIT": "nM", "READING": 15}
{"BINDER": "LNWNSFGLRF-NH2 [Compound No. 73: [Leu1]MS10]", "MEASUREMENT_NAME": "IC50", "MEASURE_UNIT": "nM", "READING": 220}
{"BINDER": "YNWNLFGLRF-NH2 [Compound No. 24: [Leu5]MS10]", "MEASUREMENT_NAME": "IC50", "MEASURE_UNIT": "nM", "READING": 0.83}
{"BINDER": "YNKNSFGLRF-NH2 [Compound No. 71: [Lys3]MS10]", "MEASUREMENT_NAME": "IC50", "MEASURE_UNIT": "nM", "READING": 66}
{"BINDER": "YNWNSFSLRF-NH2 [Compound No. 101: [Ser7]MS10]", "MEASUREMENT_NAME": "IC50", "MEASURE_UNIT": "nM", "READING": 100}
{"BINDER": "{4‑Imidazoleacetyl}-NSF[azaGly]L[Arg(Me)]F-NH2 [Compound No. 323: des(1-3)-4-Imidazoleacetyl-[AzaGly7,Arg(Me)9]MS10]", "MEASUREMENT_NAME": "IC50", "MEASURE_UNIT": "nM", "READING": 280}

meta.source: patent US20060241051A1
